- Tested on: MT-4 cells
- protocol_details: Cytotoxicity in mock-infected MT-4 cells (MTT method)
- Format: cell-based
- experimental_context: human, 5 days
quantity_measured: CC50
Could you write the number and then its unit?

Given item Cc1cc(C#N)cc(C)c1Oc1nc(Nc2ccc(NC(=O)C3CCCN3)cc2)nc2ccsc12 (stereo not shown) [5k] , the value recorded as its CC50 is 27.9 µM

====

So I've got a bunch of compounds here, and I need their SI IIIB values.
- Tested on: HIV-1 wild-type (WT) strain (IIIB)
- protocol_details: Anti-HIV activity in MT-4 cells (MTT method), HIV-1 IIIB
- Type: cell-based
- experimental_context: selectivity index, ratio CC50/EC50, IIIB
Numbers only.

Please review the entries below; each comes with its answer.
compound="Cc1cc(C#N)cc(C)c1Oc1nc(Nc2ccc(NC(=O)C3CC(O)CN3)cc2)nc2ccsc12 (stereo not shown)" system_tested="HIV-1 wild-type (WT) strain (IIIB)" recorded_measurement=451
compound=Cc1cc(C#N)cc(C)c1Oc1nc(Nc2ccc(NC(=O)[C@H](N)CC(C)C)cc2)nc2ccsc12 system_tested="HIV-1 wild-type (WT) strain (IIIB)" recorded_measurement=391
compound=Cc1cc(C#N)cc(C)c1Oc1nc(Nc2ccc(NC(=O)[C@H](Cc3cn(C(=O)OC(C)(C)C)cn3)NC(=O)OC(C)(C)C)cc2)nc2ccsc12 system_tested="HIV-1 wild-type (WT) strain (IIIB)" recorded_measurement=29
compound=Cc1cc(C#N)cc(C)c1Oc1nc(Nc2ccc(NC(=O)[C@@H](N)Cc3c[nH]cn3)cc2)nc2ccsc12 system_tested="HIV-1 wild-type (WT) strain (IIIB)" recorded_measurement=484
compound="Cc1cc(C#N)cc(C)c1Oc1nc(Nc2ccc(NC(=O)C(N)Cc3c[nH]c4ccccc34)cc2)nc2ccsc12 (stereo not shown)" system_tested="HIV-1 wild-type (WT) strain (IIIB)" recorded_measurement=250

Given item Cc1cc(C#N)cc(C)c1Oc1nc(Nc2ccc(NC(=O)C3CCCN3C(=O)OC(C)(C)C)cc2)nc2ccsc12 (stereo not shown) , the value recorded as its SI IIIB is 206

====

So I've got a bunch of molecules here, and I need their log10(EC50) values.
- Test system: HIV-1 Y188L mutant strain
- protocol_details: Anti-HIV activity in MT-4 cells (MTT method), Y188L
- Assay type: cell-based
- experimental_context: Human immunodeficiency virus 1, MT4, read-out: EC50 Y188L
Note: values are log10 of EC50 expressed in nM.

molecule="Cc1cc(C#N)cc(C)c1Oc1nc(Nc2ccc(NC(=O)C3CCCN3)cc2)nc2ccsc12 (stereo not drawn)" recorded_measurement=3.37
molecule=Cc1cc(C#N)cc(C)c1Oc1nc(Nc2ccc(NC(=O)[C@H](N)CC(C)C)cc2)nc2ccsc12 recorded_measurement=3.32
molecule="O=C1Nc2ccc(Cl)cc2[C@@](C#CC2CC2)(C(F)(F)F)O1 [EFV, efavirenz, reference compound]" recorded_measurement=2.45

Dear reader, for each entry below, please note its log10(EC50).
1. Cc1cc(C#N)cc(C)c1Oc1nc(Nc2ccc(NC(=O)[C@@H](N)Cc3c[nH]cn3)cc2)nc2ccsc12
2. Cc1ccnc2c1NC(=O)c1cccnc1N2C1CC1 [NVP, nevirapine, reference compound]
3. Cc1cc(C#N)cc(C)c1Oc1nc(Nc2ccc(C#N)cc2)nc(N)c1Br [ETR, etravirine, reference compound]
4. Cc1cc(C#N)cc(C)c1Oc1nc(Nc2ccc(NC(=O)[C@@H](N)Cc3ccccc3)cc2)nc2ccsc12
5. Cc1cc(C#N)cc(C)c1Oc1nc(Nc2ccc(NC(=O)C3CC(O)CN3)cc2)nc2ccsc12 (stereo not drawn)
6. Cc1cc(C#N)cc(C)c1Oc1nc(Nc2ccc(NC(=O)[C@@H](N)C(C)C)cc2)nc2ccsc12

[3.35, 3.99, 1.32, 3.38, 3.44, 3.84]
